Hey, just so you know, these numbers are from the supplement of paper PMC13386468.

# Target or system: UniProt Q8IE41
# Protocol summary: apparent dissociation constant (Kd app) from Kinobeads competition
# Settings: assay detail: Kinobeads competition in P. falciparum blood-stage lysate
Property measured: Kd (nM)
Your answer should be a plain number; it is taken to be in nM.

Which Kd value belongs to O=c1[nH]c2ccc(Cl)cc2c(NC2CN3CCC2CC3)c1-c1nc2ccccc2[nH]1 (stereo unspecified) ?
239

* * *

# Target or system: UniProt Q8I5D5
# Protocol summary: IC50 for competition of protein binding to Kinobeads
# Settings: assay detail: Kinobeads competition in P. falciparum blood-stage lysate
Property measured: IC50

# IC50 lookup, item O=c1[nH]c2ccc(Cl)cc2c(NC2CN3CCC2CC3)c1-c1nc2ccccc2[nH]1 (stereo unspecified)
> 20 µM

* * *

# Target or system: UniProt Q8IKB0
# Protocol summary: IC50 for competition of protein binding to Kinobeads
# Settings: assay detail: Kinobeads competition in P. falciparum blood-stage lysate
pIC50: −log10 of the molar value.
Property measured: pIC50

Given O=c1[nH]c2ccc(Cl)cc2c(NC2CN3CCC2CC3)c1-c1nc2ccccc2[nH]1 (stereo unspecified) [CHIR-124] , state its recorded pIC50.
< 4.70

* * *

# Target or system: UniProt Q8IAL6
# Protocol summary: IC50 for competition of protein binding to Kinobeads
# Settings: assay detail: Kinobeads competition in P. falciparum blood-stage lysate
Property measured: IC50

Sample O=c1[nH]c2ccc(Cl)cc2c(NC2CN3CCC2CC3)c1-c1nc2ccccc2[nH]1 (stereo unspecified) [CHIR-124] — what was its IC50?
> 20 µM

* * *

# Target or system: UniProt Q8ILK2
# Protocol summary: IC50 for competition of protein binding to Kinobeads
# Settings: assay detail: Kinobeads competition in P. falciparum blood-stage lysate
Property measured: IC50

Give IC50 (UniProt Q8ILK2) of the following compound: O=c1[nH]c2ccc(Cl)cc2c(NC2CN3CCC2CC3)c1-c1nc2ccccc2[nH]1 (stereo unspecified) [CHIR-124]
> 20 µM

* * *

# Target or system: UniProt Q8I5X8
# Protocol summary: IC50 for competition of protein binding to Kinobeads
# Settings: assay detail: Kinobeads competition in P. falciparum blood-stage lysate
Property measured: IC50

Param readout = IC50; param system = UniProt Q8I5X8; param query = O=c1[nH]c2ccc(Cl)cc2c(NC2CN3CCC2CC3)c1-c1nc2ccccc2[nH]1 (stereo unspecified) [CHIR-124] ; response: value
> 20 µM

* * *

# Target or system: UniProt Q8IDV1
# Protocol summary: IC50 for competition of protein binding to Kinobeads
# Settings: assay detail: Kinobeads competition in P. falciparum blood-stage lysate
Property measured: IC50

Endpoint output: IC50 of O=c1[nH]c2ccc(Cl)cc2c(NC2CN3CCC2CC3)c1-c1nc2ccccc2[nH]1 (stereo unspecified) . Value?
> 20 µM

* * *

# Target or system: UniProt Q8IIR7
# Sequence (whole entry): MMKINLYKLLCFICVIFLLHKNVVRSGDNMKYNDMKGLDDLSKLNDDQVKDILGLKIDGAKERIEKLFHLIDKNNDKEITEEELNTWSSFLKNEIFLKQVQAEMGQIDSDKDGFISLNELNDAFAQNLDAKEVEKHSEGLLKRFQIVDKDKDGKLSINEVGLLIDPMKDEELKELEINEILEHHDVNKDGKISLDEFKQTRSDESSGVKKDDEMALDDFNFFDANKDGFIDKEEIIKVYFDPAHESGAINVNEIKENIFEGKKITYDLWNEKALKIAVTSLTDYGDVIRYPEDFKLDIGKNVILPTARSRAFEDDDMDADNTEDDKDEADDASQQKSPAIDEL
# Protocol summary: IC50 for competition of protein binding to Kinobeads
# Settings: assay detail: Kinobeads competition in P. falciparum blood-stage lysate
pIC50: −log10 of the molar value.
Property measured: pIC50

Form field: pIC50 recorded for O=c1[nH]c2ccc(Cl)cc2c(NC2CN3CCC2CC3)c1-c1nc2ccccc2[nH]1 (stereo unspecified) with UniProt Q8IIR7 (enter value)
< 4.70
